The measurements presented in this section are drawn from patent US10406140B2.

Biological target: Human AMPK α2ß2γ1 (Homo sapiens, UniProt O43741+P54646)
Construct: The full length cDNAs of human AMPK ß2 (NM_005399.3) and human AMPK α2 (NM_006252.3); The full length cDNAs of human AMPK ß2 (NM_005399.3); 6xHis (N); made in house; host or cells: Escherichia coli BL21 CodonPlus (DE3)-RIL
Sequence (P54646 whole entry): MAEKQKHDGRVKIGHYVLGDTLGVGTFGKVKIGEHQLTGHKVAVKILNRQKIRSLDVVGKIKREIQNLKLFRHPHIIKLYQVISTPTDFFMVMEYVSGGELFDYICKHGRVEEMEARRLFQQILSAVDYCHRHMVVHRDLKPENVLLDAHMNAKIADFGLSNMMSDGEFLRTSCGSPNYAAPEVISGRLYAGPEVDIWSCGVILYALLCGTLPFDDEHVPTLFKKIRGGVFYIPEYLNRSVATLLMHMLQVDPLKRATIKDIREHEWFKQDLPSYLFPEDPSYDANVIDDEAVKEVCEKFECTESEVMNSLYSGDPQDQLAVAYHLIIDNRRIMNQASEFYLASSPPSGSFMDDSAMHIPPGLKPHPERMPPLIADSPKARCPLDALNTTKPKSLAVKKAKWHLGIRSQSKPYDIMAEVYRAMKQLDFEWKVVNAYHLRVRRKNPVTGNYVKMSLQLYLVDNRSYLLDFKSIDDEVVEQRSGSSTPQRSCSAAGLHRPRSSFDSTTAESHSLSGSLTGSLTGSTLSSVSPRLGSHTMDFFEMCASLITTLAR
Sequence (O43741 whole entry): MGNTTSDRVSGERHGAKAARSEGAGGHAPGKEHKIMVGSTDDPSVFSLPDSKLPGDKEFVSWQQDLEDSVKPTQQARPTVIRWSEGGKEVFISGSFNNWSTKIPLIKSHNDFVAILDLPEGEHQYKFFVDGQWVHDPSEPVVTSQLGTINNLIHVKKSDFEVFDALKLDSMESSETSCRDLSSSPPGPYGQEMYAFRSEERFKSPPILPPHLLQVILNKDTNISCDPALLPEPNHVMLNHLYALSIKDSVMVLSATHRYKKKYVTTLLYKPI
Sequence (P54619 whole entry partner): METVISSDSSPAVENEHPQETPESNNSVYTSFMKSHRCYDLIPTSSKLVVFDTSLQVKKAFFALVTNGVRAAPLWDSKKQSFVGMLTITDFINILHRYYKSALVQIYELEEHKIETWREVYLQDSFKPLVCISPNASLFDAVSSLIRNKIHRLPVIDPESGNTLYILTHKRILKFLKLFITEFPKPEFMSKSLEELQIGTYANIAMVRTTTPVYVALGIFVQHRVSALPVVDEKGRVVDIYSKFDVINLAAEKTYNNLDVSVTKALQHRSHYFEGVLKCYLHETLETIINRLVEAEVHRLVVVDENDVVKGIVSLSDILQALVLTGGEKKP
Experiment: Test Example 2: activator evaluation on phosphorylated human AMPK α2ß2γ1 (mobility-shift assay, FL-Peptide 7)
Type: biochemical
Details: human AMPK α2ß2γ1 pre-phosphorylated with CaMKK2; 25° C., 2 hours; 1% DMSO
quantity.name: EC150 (compound concentration showing 150% relative to the control (100%)) (nM)
Kindly answer with a numeric value in nM, unit omitted.

Data request: Suppose we examine the molecule `CS(C)(=O)=Nc1ccc(-c2ccc(-c3nc4nc(O[C@@H]5CO[C@H]6[C@@H]5OC[C@H]6O)[nH]c4cc3F)cc2)cc1` ; what EC150 (compound concentration showing 150% relative to the control (100%)) value has been reported?
Data returned: 0.93

Data request: Suppose we examine the molecule `CS(C)(=O)=Nc1ccc(-c2ccc(-c3nc4nc(O[C@@H]5CO[C@H](CO)C5(F)F)[nH]c4cc3Cl)cc2)cc1` ; what EC150 (compound concentration showing 150% relative to the control (100%)) value has been reported?
Data returned: 2.1

Data request: Suppose we examine the molecule CNS(C)(=O)=Nc1ccc(-c2ccc(-c3nc4nc(O[C@@H]5CO[C@H](CO)C5(F)F)[nH]c4cc3Cl)cc2)cc1 (stereo partly shown) ; what EC150 (compound concentration showing 150% relative to the control (100%)) value has been reported?
Data returned: 2.4

Data request: Suppose we examine the molecule `CS(C)(=O)=Nc1ccc(-c2ccc(-c3nc4nc(O[C@@H]5CO[C@H](CO)[C@H]5F)[nH]c4cc3F)cc2)cc1` ; what EC150 (compound concentration showing 150% relative to the control (100%)) value has been reported?
Data returned: 3.1
